biological target: human CD33 variant Y50L (human, UniProt P20138 18-364); experiment: flow cytometry, IgG on cells expressing the mutant
Sequence (P20138 18-364 Y50L limits assumed): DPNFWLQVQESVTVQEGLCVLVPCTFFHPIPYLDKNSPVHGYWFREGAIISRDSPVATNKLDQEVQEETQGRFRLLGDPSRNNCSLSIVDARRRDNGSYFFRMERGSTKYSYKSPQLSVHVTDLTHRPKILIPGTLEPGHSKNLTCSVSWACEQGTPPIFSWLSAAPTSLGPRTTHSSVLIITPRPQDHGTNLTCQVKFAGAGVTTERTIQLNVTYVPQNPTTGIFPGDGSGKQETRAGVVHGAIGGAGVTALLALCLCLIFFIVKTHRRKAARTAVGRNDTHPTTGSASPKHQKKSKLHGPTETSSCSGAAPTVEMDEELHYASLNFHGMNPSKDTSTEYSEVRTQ
observed.property: Mean % WT Binding

Some binders with recorded Mean % WT Binding:
binder	result
Refmab #2 (antibody, human IgG1, V domains shown, Tested in IgG format; human IgG1 Fc silent (PG-LALA)) VH: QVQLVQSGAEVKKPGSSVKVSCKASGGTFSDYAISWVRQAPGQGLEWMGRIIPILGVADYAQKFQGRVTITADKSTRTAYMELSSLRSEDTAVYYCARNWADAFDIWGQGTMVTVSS VL: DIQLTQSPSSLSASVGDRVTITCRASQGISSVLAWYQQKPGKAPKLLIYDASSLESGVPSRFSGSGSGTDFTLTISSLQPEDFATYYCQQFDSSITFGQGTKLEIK	119 % of WT
Refmab #4 (antibody, human IgG1, V domains shown, Tested in IgG format; human IgG1 Fc silent (PG-LALA)) VH: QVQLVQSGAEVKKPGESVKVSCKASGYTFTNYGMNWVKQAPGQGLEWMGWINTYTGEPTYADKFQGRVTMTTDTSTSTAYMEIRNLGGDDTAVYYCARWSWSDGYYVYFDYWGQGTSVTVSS VL: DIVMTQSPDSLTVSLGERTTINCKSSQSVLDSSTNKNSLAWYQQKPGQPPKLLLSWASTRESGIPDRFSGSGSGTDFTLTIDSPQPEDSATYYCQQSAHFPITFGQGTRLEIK	1.9 % of WT
Refmab #3 (antibody, human IgG1, V domains shown, Tested in IgG format; human IgG1 Fc silent (PG-LALA)) VH: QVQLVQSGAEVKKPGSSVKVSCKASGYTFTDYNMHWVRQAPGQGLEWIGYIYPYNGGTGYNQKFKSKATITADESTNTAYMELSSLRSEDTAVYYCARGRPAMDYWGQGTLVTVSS VL: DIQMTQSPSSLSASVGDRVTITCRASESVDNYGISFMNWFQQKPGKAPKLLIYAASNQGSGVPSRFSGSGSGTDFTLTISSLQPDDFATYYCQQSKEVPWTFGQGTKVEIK	106 % of WT

# next binder below
Task: What does the record list as Mean % WT Binding for Refmab #1 (antibody, human IgG1, V domains shown, Tested in IgG format; human IgG1 (Absolute Antibody hP67.6, Cat. No. Ab00283-10.0); also called hP67.6) VH: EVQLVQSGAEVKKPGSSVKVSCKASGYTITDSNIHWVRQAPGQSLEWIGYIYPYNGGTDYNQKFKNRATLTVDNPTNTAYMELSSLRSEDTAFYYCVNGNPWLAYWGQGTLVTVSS VL: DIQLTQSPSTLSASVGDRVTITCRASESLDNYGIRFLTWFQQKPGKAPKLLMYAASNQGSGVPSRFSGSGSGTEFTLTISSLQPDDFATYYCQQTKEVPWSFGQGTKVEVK ?
Result: 109 % of WT
